Values from paper PMC6327040

As an illustration, consider measured pIC50 for molecules on EGFRwt (Homo sapiens).
Sequence (P00533 25-1210): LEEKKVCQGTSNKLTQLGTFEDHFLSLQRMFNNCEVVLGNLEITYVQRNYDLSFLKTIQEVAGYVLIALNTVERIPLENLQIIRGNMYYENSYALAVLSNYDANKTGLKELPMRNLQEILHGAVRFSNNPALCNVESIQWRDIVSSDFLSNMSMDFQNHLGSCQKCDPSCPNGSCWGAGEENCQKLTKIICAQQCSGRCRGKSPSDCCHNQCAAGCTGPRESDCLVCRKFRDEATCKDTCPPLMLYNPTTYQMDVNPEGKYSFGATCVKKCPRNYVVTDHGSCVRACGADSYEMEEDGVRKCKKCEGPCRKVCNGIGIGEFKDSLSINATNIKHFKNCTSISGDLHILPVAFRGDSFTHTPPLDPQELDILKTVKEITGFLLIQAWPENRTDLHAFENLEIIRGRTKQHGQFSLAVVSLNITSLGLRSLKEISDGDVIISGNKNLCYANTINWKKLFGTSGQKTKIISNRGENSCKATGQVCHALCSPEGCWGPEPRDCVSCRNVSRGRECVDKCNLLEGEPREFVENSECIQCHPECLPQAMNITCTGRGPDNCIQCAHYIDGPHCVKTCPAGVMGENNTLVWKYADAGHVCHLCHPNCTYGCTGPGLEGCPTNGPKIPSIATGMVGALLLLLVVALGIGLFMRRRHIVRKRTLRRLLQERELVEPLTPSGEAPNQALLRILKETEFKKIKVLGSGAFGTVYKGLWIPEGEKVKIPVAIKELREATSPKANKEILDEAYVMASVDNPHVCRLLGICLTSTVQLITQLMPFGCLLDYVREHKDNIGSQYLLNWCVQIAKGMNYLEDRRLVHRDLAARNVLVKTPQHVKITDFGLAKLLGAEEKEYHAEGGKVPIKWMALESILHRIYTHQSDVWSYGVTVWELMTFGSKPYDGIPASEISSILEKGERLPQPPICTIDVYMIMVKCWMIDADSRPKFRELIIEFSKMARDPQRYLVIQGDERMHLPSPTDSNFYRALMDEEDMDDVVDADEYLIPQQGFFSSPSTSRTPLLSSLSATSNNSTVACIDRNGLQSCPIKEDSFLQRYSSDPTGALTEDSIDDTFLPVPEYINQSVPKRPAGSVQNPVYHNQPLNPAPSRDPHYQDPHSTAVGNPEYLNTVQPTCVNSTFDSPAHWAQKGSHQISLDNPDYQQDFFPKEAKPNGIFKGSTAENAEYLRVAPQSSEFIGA
Schema: pIC50 number; meaning minus log10 of the concentration expressed in molar units.

O=C(CCl)Nc1ccc2ncc(NC(=O)Nc3cccc(C(F)(F)F)c3)nc2c1 6.75
N#CCC(=O)Nc1ccc2ncc(NC(=O)Nc3ccccc3)nc2c1 5.51

Req: Endpoint output: pIC50 of "O=C(CCl)Nc1ccc2ncc(NC(=O)Nc3ccccc3)nc2c1" . Value?
Resp: 6.91

###

measure: melting point

molecule	melting point
O=C(CCl)Nc1ccc2ncc(NC(=O)Nc3cccc(C(F)(F)F)c3)nc2c1 [Compound 7g]	260 to 263 °C
N#CCC(=O)Nc1ccc2ncc(NC(=O)Nc3ccc(Cl)c(C(F)(F)F)c3)nc2c1 [Compound 7d]	243 to 246 °C

Turning now to a further molecule:
Req: Endpoint output: melting point of C=CC(=O)Nc1ccc2ncc(NC(=O)Nc3ccc(F)c(Cl)c3)nc2c1 [Compound 7m] . Value?
Resp: 259 to 262 °C

###

studyTarget: EGFRL858R/T790M (Homo sapiens, UniProt P00533, L858R/T790M)
Sequence (P00533 25-1210 T790M/L858R): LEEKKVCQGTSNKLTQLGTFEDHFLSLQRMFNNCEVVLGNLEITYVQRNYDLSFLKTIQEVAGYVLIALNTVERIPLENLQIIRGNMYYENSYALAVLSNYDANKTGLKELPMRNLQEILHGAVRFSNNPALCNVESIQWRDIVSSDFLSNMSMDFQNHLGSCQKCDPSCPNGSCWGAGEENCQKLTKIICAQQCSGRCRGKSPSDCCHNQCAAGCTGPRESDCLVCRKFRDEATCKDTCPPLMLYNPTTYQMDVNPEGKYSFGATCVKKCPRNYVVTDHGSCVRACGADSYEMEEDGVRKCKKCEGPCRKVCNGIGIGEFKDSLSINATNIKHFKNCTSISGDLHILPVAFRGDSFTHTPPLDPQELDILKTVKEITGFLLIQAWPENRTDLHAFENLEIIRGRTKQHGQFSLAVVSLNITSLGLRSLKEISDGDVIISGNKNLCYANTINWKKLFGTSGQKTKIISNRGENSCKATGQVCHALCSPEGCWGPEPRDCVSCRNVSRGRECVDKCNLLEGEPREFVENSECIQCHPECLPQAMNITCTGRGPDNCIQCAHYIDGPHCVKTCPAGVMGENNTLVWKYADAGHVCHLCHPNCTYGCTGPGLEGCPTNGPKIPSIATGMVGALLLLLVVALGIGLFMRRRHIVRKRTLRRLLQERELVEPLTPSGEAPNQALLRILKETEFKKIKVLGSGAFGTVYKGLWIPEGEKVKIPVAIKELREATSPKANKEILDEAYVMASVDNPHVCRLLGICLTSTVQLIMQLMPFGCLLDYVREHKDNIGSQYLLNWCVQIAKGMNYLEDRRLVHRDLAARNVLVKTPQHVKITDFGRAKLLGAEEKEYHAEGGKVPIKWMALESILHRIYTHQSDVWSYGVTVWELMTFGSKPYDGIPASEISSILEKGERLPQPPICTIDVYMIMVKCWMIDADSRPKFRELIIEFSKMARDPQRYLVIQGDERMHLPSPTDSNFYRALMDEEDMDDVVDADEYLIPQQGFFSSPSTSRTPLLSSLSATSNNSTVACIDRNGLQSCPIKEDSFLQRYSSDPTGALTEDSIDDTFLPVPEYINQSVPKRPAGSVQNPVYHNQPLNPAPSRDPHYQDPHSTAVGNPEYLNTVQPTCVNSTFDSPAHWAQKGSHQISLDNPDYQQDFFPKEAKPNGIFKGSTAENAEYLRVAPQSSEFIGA
runDescription: HTRF KinEASE-TK biochemical assay (TR-FRET), EGFR-L858R/T790M
Recorded measurements of IC50, one per entry

Use the examples below as a reference point.
C=CC(=O)Nc1ccc2ncc(NC(=O)Nc3ccc(Cl)c(C(F)(F)F)c3)nc2c1 > 10 µM
N#CCC(=O)Nc1ccc2ncc(NC(=O)Nc3ccccc3)nc2c1 6.29 µM
C=CC(=O)Nc1ccc2ncc(NC(=O)Nc3ccccc3)nc2c1 1.68 µM
C=CC(=O)Nc1ccc2ncc(NC(=O)Nc3ccc(F)c(Cl)c3)nc2c1 > 10 µM

Turning now to a further molecule:
Req: Endpoint output: IC50 of "C/C=C/C(=O)Nc1ccc2ncc(NC(=O)Nc3ccc(Cl)c(C(F)(F)F)c3)nc2c1" . Value?
Resp: > 10 µM

###

Recorded measurements of IC50, one per entry
studyTarget: EGFRL858R/T790M (Homo sapiens, UniProt P00533, L858R/T790M)
runDescription: HTRF KinEASE-TK biochemical assay (TR-FRET), EGFR-L858R/T790M
Answer in µM, number only, no unit symbol.

CN(C)C/C=C/C(=O)Nc1ccc2ncc(NC(=O)Nc3ccccc3)nc2c1 0.132
O=C(CCl)Nc1ccc2ncc(NC(=O)Nc3ccc(Cl)c(C(F)(F)F)c3)nc2c1 2.71
O=C(CCl)Nc1ccc2ncc(NC(=O)Nc3ccccc3)nc2c1 0.823
CN(C)C/C=C/C(=O)Nc1ccc2ncc(NC(=O)Nc3ccc(Cl)c(C(F)(F)F)c3)nc2c1 6.14
O=C(CCl)Nc1ccc2ncc(NC(=O)Nc3cccc(C(F)(F)F)c3)nc2c1 9.83

Turning now to a further molecule:
Req: Endpoint output: IC50 of "N#CCC(=O)Nc1ccc2ncc(NC(=O)Nc3ccc(Cl)c(C(F)(F)F)c3)nc2c1" . Value?
Resp: 9.87

###

studyTarget: EGFRL858R (Homo sapiens, UniProt P00533, L858R)
Sequence (P00533 25-1210 L858R): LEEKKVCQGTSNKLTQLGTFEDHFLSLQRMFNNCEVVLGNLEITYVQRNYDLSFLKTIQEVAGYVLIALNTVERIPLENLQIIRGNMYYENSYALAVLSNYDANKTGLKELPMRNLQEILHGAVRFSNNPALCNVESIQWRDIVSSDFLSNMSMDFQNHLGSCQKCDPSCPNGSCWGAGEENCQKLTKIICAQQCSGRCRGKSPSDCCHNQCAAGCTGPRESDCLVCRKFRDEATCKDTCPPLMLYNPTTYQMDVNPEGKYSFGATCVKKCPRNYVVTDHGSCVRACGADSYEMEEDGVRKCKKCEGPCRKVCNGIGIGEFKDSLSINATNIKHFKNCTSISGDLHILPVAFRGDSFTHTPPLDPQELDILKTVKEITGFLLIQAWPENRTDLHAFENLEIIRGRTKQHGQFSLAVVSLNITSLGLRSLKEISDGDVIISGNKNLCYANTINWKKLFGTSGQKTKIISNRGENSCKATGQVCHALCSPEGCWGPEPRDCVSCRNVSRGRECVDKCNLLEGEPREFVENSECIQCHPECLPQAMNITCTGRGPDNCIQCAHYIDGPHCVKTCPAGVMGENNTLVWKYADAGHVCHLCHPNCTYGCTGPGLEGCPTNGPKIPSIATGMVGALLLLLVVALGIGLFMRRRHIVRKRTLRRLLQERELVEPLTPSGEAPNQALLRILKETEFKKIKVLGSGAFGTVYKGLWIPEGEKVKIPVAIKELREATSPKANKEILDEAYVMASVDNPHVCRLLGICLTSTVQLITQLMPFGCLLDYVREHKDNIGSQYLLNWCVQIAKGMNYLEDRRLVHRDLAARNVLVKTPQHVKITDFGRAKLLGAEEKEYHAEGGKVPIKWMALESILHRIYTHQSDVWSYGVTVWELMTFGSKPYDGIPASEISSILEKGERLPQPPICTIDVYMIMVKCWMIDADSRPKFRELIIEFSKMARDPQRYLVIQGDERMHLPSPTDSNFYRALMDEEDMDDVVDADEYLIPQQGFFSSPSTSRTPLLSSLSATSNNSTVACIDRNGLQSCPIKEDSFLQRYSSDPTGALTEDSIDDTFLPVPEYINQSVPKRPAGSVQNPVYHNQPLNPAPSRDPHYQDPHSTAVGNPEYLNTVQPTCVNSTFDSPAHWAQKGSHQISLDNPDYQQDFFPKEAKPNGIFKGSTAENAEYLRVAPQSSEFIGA
runDescription: HTRF KinEASE-TK biochemical assay (TR-FRET), EGFR-L858R
pIC50: −log10 of the molar value.
Give 1 when the value for pIC50 is at least 6. Give 0 when it is less.

compound	studyTarget	answerLabel
O=C(CCl)Nc1ccc2ncc(NC(=O)Nc3ccc(Cl)c(C(F)(F)F)c3)nc2c1 [Compound 7c]	EGFRL858R (Homo sapiens, UniProt P00533, L858R)	0
CN(C)C/C=C/C(=O)Nc1ccc2ncc(NC(=O)Nc3ccc(Cl)c(C(F)(F)F)c3)nc2c1 [Compound 7e]	EGFRL858R (Homo sapiens, UniProt P00533, L858R)	0
C=CC(=O)Nc1ccc2ncc(NC(=O)Nc3ccc(F)c(Cl)c3)nc2c1 [Compound 7m]	EGFRL858R (Homo sapiens, UniProt P00533, L858R)	0

Req: Decide: is the reported value of pIC50 for N#CCC(=O)Nc1ccc2ncc(NC(=O)Nc3ccccc3)nc2c1 [Compound 7k] equal to or greater than 6?
Resp: 1

Req: Proceed to C=CC(=O)Nc1ccc2ncc(NC(=O)Nc3cccc(C(F)(F)F)c3)nc2c1 [Compound 7f]
Resp: 0

Req: Proceed to C/C=C/C(=O)Nc1ccc2ncc(NC(=O)Nc3ccc(Cl)c(C(F)(F)F)c3)nc2c1 [Compound 7b]
Resp: 0

Req: Proceed to N#CCC(=O)Nc1ccc2ncc(NC(=O)Nc3ccc(Cl)c(C(F)(F)F)c3)nc2c1 [Compound 7d]
Resp: 0

Req: Proceed to C=CC(=O)Nc1ccc2ncc(NC(=O)Nc3ccccc3)nc2c1 [Compound 7h]
Resp: 1

Req: Proceed to C=CC(=O)Nc1ccc2ncc(NC(=O)Nc3ccc(Cl)c(C(F)(F)F)c3)nc2c1 [Compound 7a]
Resp: 0

Req: Proceed to O=C(CCl)Nc1ccc2ncc(NC(=O)Nc3ccccc3)nc2c1 [Compound 7j]
Resp: 1

Req: Proceed to O=C(CCl)Nc1ccc2ncc(NC(=O)Nc3cccc(C(F)(F)F)c3)nc2c1 [Compound 7g]
Resp: 0

Req: Proceed to CN(C)C/C=C/C(=O)Nc1ccc2ncc(NC(=O)Nc3ccccc3)nc2c1 [Compound 7l]
Resp: 1

Req: Proceed to C/C=C/C(=O)Nc1ccc2ncc(NC(=O)Nc3ccccc3)nc2c1 [Compound 7i]
Resp: 0
